Origin of measurements: patent US4085224A

- Test system: rumen fluid
- PROTOCOL_DETAILS: in vitro rumen fluid volatile fatty acid production
- Set-up: species or system steer
- CONDITION: 1 ppm in rumen fluid, 16 hours at 38° C.
For each record, write down the corresponding Ratio of Treated to Control, Molar % propionate.
Answer as a number with no unit attached.

Give reported Ratio of Treated to Control, Molar % propionate for CCCCCC(=O)OC1C=CC2(OC(C(CC)C(=O)C(C)C(O)C(C)C3OC(C(CC)C(=O)O)C(C)CC3C)C(C)CC2C)OC12CCC(C)(C1CCC(O)(CC)C(C)O1)O2 (stereo not drawn) (rumen fluid)
1.57

Give reported Ratio of Treated to Control, Molar % propionate for CCC(C(=O)O)C1OC(C(C)C(O)C(C)C(=O)C(CC)C2OC3(C=CC(OC(C)=O)C4(CCC(C)(C5CCC(O)(CC)C(C)O5)O4)O3)C(C)CC2C)C(C)CC1C (stereo not drawn) (rumen fluid)
2.04

Give reported Ratio of Treated to Control, Molar % propionate for CCCC(=O)OC1C=CC2(OC(C(CC)C(=O)C(C)C(O)C(C)C3OC(C(CC)C(=O)O)C(C)CC3C)C(C)CC2C)OC12CCC(C)(C1CCC(O)(CC)C(C)O1)O2 (stereo not drawn) (rumen fluid)
1.56

Give reported Ratio of Treated to Control, Molar % propionate for CCC(C(=O)O)C1OC(C(C)C(O)C(C)C(=O)C(CC)C2OC3(C=CC(O)C4(CCC(C)(C5CCC(O)(CC)C(C)O5)O4)O3)C(C)CC2C)C(C)CC1C (stereo not drawn) (rumen fluid)
1.34

Give reported Ratio of Treated to Control, Molar % propionate for CCC(=O)OC1C=CC2(OC(C(CC)C(=O)C(C)C(O)C(C)C3OC(C(CC)C(=O)O)C(C)CC3C)C(C)CC2C)OC12CCC(C)(C1CCC(O)(CC)C(C)O1)O2 (stereo not drawn) (rumen fluid)
1.73

Give reported Ratio of Treated to Control, Molar % propionate for CCCCC(=O)OC1C=CC2(OC(C(CC)C(=O)C(C)C(O)C(C)C3OC(C(CC)C(=O)O)C(C)CC3C)C(C)CC2C)OC12CCC(C)(C1CCC(O)(CC)C(C)O1)O2 (stereo not drawn) (rumen fluid)
1.55

====

- System: rumen fluid
- PROTOCOL_DETAILS: in vitro rumen fluid volatile fatty acid production
- Design: species or system steer
- CONDITION: 1 ppm in rumen fluid, 16 hours at 38° C.
METRIC_NAME: Ratio of Treated to Control, Molar % acetate
Answer as a number with no unit attached.

Give reported Ratio of Treated to Control, Molar % acetate for CCC(C(=O)O)C1OC(C(C)C(O)C(C)C(=O)C(CC)C2OC3(C=CC(O)C4(CCC(C)(C5CCC(O)(CC)C(C)O5)O4)O3)C(C)CC2C)C(C)CC1C (stereo not drawn) (rumen fluid)
0.94

Give reported Ratio of Treated to Control, Molar % acetate for CCCCC(=O)OC1C=CC2(OC(C(CC)C(=O)C(C)C(O)C(C)C3OC(C(CC)C(=O)O)C(C)CC3C)C(C)CC2C)OC12CCC(C)(C1CCC(O)(CC)C(C)O1)O2 (stereo not drawn) (rumen fluid)
0.92

Give reported Ratio of Treated to Control, Molar % acetate for CCCC(=O)OC1C=CC2(OC(C(CC)C(=O)C(C)C(O)C(C)C3OC(C(CC)C(=O)O)C(C)CC3C)C(C)CC2C)OC12CCC(C)(C1CCC(O)(CC)C(C)O1)O2 (stereo not drawn) (rumen fluid)
0.91

Give reported Ratio of Treated to Control, Molar % acetate for CCC(=O)OC1C=CC2(OC(C(CC)C(=O)C(C)C(O)C(C)C3OC(C(CC)C(=O)O)C(C)CC3C)C(C)CC2C)OC12CCC(C)(C1CCC(O)(CC)C(C)O1)O2 (stereo not drawn) (rumen fluid)
0.90

Give reported Ratio of Treated to Control, Molar % acetate for CCC(C(=O)O)C1OC(C(C)C(O)C(C)C(=O)C(CC)C2OC3(C=CC(OC(C)=O)C4(CCC(C)(C5CCC(O)(CC)C(C)O5)O4)O3)C(C)CC2C)C(C)CC1C (stereo not drawn) (rumen fluid)
0.79

Give reported Ratio of Treated to Control, Molar % acetate for CCCCCC(=O)OC1C=CC2(OC(C(CC)C(=O)C(C)C(O)C(C)C3OC(C(CC)C(=O)O)C(C)CC3C)C(C)CC2C)OC12CCC(C)(C1CCC(O)(CC)C(C)O1)O2 (stereo not drawn) (rumen fluid)
0.86
